Reference for the values: patent US9132130B2

The listing below reports log10 of GI50 for compounds tested on PC-3 cells (human prostate cancer cells).
For clarity, the numbers are log10 values of GI50 expressed in nM.

[[record]]
given_smiles = "CCc1ccc(CSc2nc(N3CCOCC3)c3nc(CC)n(C)c3n2)cc1"
assay_target = "PC-3 cells (human prostate cancer cells)"
measured_metric = "log10 of GI50"
observed_result = 2.93

[[record]]
given_smiles = "COc1ccc(CSc2nc(N(C)OC)c3ncn(C)c3n2)cc1F"
assay_target = "PC-3 cells (human prostate cancer cells)"
measured_metric = "log10 of GI50"
observed_result = 1.78

[[record]]
given_smiles = "CCc1nc2c(N3CCOCC3)nc(SCc3ccc(OC)cc3)nc2n1C"
assay_target = "PC-3 cells (human prostate cancer cells)"
measured_metric = "log10 of GI50"
observed_result = 2.45

[[record]]
given_smiles = "COc1ccc(CSc2nc(-c3ccsc3)c3ncn(C)c3n2)cc1"
assay_target = "PC-3 cells (human prostate cancer cells)"
measured_metric = "log10 of GI50"
observed_result = 2.51

[[record]]
given_smiles = "CCc1nc2c(N3CCOCC3)nc(SCc3ccc(C)cc3)nc2n1C"
assay_target = "PC-3 cells (human prostate cancer cells)"
measured_metric = "log10 of GI50"
observed_result = 2.79


Turning now to a further record.
Fill in the blank: the reported log10 of GI50 of "CCc1nc2c(N3CCOCC3)nc(SCc3ccc(OC)c(Cl)c3)nc2n1C" is ____.
2.96
